# SYSTEM: Phosphodiesterase 3 (Homo sapiens, UniProt Q14432+Q13370)
# EXPERIMENT_DESCRIPTION: Inhibition of human recombinant PDE3 expressed in Escherichia coli
RESULT_TYPE: IC50 (nM)

C[C@@H]1C(=O)NC2=Nc3cccc(Cl)c3CN21 = 580
CC1CC(=O)NN=C1c1ccc2c(c1)CCC(=O)N2C (centres undefined) = 90

(a) O=C1CCc2cc(OCCCCc3nnnn3C3CCCCC3)ccc2N1
(b) O=C1NC2=Nc3ccc(Cl)c(Cl)c3CN2C1O (centres undefined)
Input line: Look at a and b . Which one has the lower recorded IC50 number? Output the label that corresponds to your choice.
Output line: b

----------
# EXPERIMENT_DESCRIPTION: Antiplatelet aggregation activity in rabbit platelet rich plasma assessed as reduction in ADP-induced platelet aggregation
# Type: functional, cell-based
# ASSAY_CONTEXT: Oryctolagus cuniculus
RESULT_TYPE: pEC50
// pEC50 is dimensionless: -log10 of concentration (M)

Input line: Return reported pEC50; argument: O=C1CN2Cc3c(ccc(Cl)c3Cl)N=C2N1 [ANAGRELIDE]
Output line: 5.92

----------
# SYSTEM: Ribonuclease SLFN12 (Homo sapiens)
# Sequence (Q8IYM2 whole entry): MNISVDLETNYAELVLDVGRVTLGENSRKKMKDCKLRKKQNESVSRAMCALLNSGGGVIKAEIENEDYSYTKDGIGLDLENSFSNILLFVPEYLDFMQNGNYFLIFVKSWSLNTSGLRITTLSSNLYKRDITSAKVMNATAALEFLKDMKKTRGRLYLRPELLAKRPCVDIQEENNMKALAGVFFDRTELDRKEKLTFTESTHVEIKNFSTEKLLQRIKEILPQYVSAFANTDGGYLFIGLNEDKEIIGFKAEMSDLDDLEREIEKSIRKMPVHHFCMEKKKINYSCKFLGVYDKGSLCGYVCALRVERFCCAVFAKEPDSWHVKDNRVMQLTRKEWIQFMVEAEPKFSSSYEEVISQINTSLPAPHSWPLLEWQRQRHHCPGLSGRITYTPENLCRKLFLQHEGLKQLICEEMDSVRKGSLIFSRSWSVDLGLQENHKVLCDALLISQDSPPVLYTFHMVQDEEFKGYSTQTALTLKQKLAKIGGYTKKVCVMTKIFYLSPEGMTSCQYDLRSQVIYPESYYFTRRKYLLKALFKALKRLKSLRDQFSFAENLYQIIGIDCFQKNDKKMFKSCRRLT
# EXPERIMENT_DESCRIPTION: Binding affinity to human recombinant SLFN12 expressed as Escherichia coli assessed as dissociation constant
RESULT_TYPE: Kd (nM)
Supply the numeric figure in nM, leaving out any unit text.

Input line: Return reported Kd; argument: `CCN(CC)c1ccc(C2=NNC(=O)C[C@H]2C)cc1[N+](=O)[O-]`
Output line: 65

----------
# EXPERIMENT_DESCRIPTION: Antiplatelet activity in rabbit platelet rich plasma assessed as inhibition of arachidonic acid-induced platelet aggregation
# Assay type: functional, cell-based
# ASSAY_CONTEXT: Oryctolagus cuniculus
RESULT_TYPE: EC50 (nM)
Supply the numeric figure in nM, leaving out any unit text.

Input line: Return reported EC50; argument: O=C1CN2Cc3c(ccc(Cl)c3Cl)N=C2N1 [ANAGRELIDE]
Output line: 390

----------
# EXPERIMENT_DESCRIPTION: Antiplatelet activity in rabbit platelet rich plasma assessed as inhibition of thrombin-induced platelet aggregation
# Type: functional, cell-based
# ASSAY_CONTEXT: Oryctolagus cuniculus
RESULT_TYPE: EC50 (nM)
Supply the numeric figure in nM, leaving out any unit text.

Input line: Return reported EC50; argument: O=C1CN2Cc3c(ccc(Cl)c3Cl)N=C2N1 [ANAGRELIDE]
Output line: 700

----------
# EXPERIMENT_DESCRIPTION: Half life in Beagle dog at 0.29 to 4.86 mg/kg, po
# Type: ADME, organism-based, Canis lupus familiaris
# ASSAY_CONTEXT: in vivo, dose 0.29-4.86 mg/kg
RESULT_TYPE: half-life (h)
Supply the numeric figure in h, leaving out any unit text.

Input line: Return reported half-life; argument: O=C1CN2Cc3c(ccc(Cl)c3Cl)N=C2N1 [ANAGRELIDE]
Output line: 19

----------
# EXPERIMENT_DESCRIPTION: Antiplatelet aggregation activity in dog rich plasma assessed as reduction in ADP-induced platelet aggregation
# Assay type: functional, cell-based
# ASSAY_CONTEXT: Canis lupus familiaris
RESULT_TYPE: EC50 (nM)
Supply the numeric figure in nM, leaving out any unit text.

Input line: Return reported EC50; argument: O=C1CN2Cc3c(ccc(Cl)c3Cl)N=C2N1 [ANAGRELIDE]
Output line: 310

----------
# SYSTEM: cGMP-inhibited 3',5'-cyclic phosphodiesterase 3A (Homo sapiens)
# Sequence (Q14432 whole entry): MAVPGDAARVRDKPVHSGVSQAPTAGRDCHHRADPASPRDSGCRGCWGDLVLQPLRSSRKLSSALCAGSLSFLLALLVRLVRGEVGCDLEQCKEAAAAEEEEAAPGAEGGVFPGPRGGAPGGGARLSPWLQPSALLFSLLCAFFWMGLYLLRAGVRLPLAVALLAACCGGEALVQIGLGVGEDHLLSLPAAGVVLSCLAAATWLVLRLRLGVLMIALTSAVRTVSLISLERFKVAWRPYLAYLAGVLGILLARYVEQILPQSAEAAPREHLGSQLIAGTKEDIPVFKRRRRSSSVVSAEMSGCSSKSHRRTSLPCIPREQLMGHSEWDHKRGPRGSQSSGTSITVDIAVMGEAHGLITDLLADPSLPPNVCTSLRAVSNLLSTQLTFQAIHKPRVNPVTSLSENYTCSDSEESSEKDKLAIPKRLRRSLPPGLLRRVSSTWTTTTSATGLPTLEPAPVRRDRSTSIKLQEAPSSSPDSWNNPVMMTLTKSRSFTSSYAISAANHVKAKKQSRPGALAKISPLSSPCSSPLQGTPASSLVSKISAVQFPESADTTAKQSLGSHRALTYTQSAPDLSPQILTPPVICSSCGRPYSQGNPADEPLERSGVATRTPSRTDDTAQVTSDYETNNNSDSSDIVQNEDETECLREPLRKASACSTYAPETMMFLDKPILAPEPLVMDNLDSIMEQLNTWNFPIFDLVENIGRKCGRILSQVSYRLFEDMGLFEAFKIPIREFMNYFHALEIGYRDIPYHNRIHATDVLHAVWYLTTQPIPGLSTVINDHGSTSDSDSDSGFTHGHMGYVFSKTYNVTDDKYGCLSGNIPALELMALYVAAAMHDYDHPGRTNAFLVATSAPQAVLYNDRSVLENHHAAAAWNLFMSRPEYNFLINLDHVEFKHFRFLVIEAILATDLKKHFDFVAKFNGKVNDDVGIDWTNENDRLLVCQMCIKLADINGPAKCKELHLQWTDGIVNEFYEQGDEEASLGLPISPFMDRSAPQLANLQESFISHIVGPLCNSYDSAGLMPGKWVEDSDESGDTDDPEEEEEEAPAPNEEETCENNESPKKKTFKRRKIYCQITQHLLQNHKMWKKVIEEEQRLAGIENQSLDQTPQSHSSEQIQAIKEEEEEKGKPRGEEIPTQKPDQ
RESULT_TYPE: pKd
// pKd is dimensionless: -log10 of concentration (M)

Input line: Return reported pKd; argument: `CCN(CC)c1ccc(C2=NNC(=O)C[C@H]2C)cc1[N+](=O)[O-]`
Output line: 7.40

----------
# EXPERIMENT_DESCRIPTION: Half life in Wistar rat at 0.29 to 4.86 mg/kg, po
# Type: ADME, organism-based
# ASSAY_CONTEXT: in vivo, dose 0.29-4.86 mg/kg
RESULT_TYPE: half-life (h)
Supply the numeric figure in h, leaving out any unit text.

Input line: Return reported half-life; argument: O=C1CN2Cc3c(ccc(Cl)c3Cl)N=C2N1 [ANAGRELIDE]
Output line: 7

----------
# EXPERIMENT_DESCRIPTION: Antiplatelet aggregation activity in Sprague-Dawley rat platelet rich plasma assessed as reduction in collagen-induced platelet aggregation
# Assay type: functional, cell-based
RESULT_TYPE: EC50 (nM)
Supply the numeric figure in nM, leaving out any unit text.

Input line: Return reported EC50; argument: O=C1CN2Cc3c(ccc(Cl)c3Cl)N=C2N1 [ANAGRELIDE]
Output line: 150
